subject_of_test: Signal transducer and activator of transcription 1-alpha/beta (Homo sapiens) (UniProt P42224)
Sequence (P42224 whole entry, looked up): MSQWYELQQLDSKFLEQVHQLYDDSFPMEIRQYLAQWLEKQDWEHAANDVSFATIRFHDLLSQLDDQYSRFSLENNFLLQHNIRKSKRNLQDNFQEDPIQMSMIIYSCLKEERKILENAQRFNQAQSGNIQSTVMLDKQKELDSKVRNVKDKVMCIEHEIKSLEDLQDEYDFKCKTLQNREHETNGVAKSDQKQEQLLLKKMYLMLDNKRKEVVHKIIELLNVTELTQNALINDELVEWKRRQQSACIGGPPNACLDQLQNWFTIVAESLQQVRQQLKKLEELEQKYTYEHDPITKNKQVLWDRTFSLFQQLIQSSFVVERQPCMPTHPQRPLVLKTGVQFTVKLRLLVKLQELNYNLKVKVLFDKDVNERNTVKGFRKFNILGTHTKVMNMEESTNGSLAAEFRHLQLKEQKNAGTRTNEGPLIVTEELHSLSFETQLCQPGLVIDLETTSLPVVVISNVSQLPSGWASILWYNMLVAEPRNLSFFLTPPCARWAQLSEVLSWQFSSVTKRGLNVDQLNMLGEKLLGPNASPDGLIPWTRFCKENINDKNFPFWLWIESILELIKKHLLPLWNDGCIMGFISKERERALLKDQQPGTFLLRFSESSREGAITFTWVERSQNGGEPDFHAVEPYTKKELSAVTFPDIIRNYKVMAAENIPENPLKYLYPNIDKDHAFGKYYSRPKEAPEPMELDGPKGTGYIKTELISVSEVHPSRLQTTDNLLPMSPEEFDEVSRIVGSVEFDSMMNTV
protocol_text: inhibition of STAT1-driven luciferase signal – cell-based, luminescence, NIH 3T3, dose response, late-stage follow-up (AID 2772)
run_conditions: NIH 3T3 fibroblasts, STAT1 luciferase reporter
Calls of active or inactive are those of the source. How the calls were made is not given here.
readout_label: IC50

Please give measured IC50 of the following entry: COc1cc2c(cc1OC)C(=O)N(Cc1coc(-c3ccccc3)n1)C(=CN1CCOCC1)N2
> 55.7 µM (inactive)

Input CCC(C)c1ccc(-c2csc(CN3C(=O)c4ccccc4N/C3=C\N3CCN(C)CC3)n2)cc1 (stereo not given) , output reported IC50.
> 18.6 µM (inactive)

Tell us which IC50 value is on record for COc1cc2c(cc1OC)C(=O)N(Cc1nnc(-c3ccc(Cl)cc3)o1)C(=CN1CCOCC1)N2
> 55.7 µM (inactive)

Answer with the recorded IC50 of CCOC(=O)Nc1ccc2c(CSc3nc4ccccc4c(=O)[nH]3)cc(=O)oc2c1 only.
> 55.7 µM (inactive)

Quickly give me recorded IC50 for Cc1ccc(NC(=O)C(c2ccccc2)N2CCN(S(=O)(=O)c3ccccc3)CC2)cc1 (stereo not given)
> 55.7 µM (inactive)

Continuing:
Name the recorded IC50 of the molecule listed here: CCC(C(=O)Nc1ccccc1)N1CCN(S(=O)(=O)c2ccc3c(c2)CCC3)CC1 (stereo not given)
> 55.7 µM (inactive)

Return IC50 for the following molecule: COc1ccc(C)cc1NC(=O)C(c1ccccc1)N1CCN(S(=O)(=O)c2ccc(F)cc2)CC1 (stereo not given)
> 55.7 µM (inactive)

Taken from PubChem BioAssay AID2772.
